- system_tested: E3 ubiquitin-protein ligase XIAP (Homo sapiens) (UniProt P98170)
- Sequence (P98170 whole entry, looked up): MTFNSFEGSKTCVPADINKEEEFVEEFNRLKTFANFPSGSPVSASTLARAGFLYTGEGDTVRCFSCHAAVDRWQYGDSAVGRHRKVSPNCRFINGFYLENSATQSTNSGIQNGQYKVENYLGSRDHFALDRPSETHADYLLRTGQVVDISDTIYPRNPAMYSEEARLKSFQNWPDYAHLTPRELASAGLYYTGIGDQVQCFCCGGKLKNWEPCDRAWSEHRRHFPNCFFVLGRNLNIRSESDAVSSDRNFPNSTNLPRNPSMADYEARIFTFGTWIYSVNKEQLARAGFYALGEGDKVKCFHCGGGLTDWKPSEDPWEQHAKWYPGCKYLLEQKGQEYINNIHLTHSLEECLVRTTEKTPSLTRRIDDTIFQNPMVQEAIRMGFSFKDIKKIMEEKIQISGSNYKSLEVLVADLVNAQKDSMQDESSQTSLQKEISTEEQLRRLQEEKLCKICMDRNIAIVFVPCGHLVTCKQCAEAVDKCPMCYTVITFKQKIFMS
- assay_name: XIAP binders, primary screen, biophysical, small-molecule microarray, fluorescence 635 nm (AID 1181);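 further: score merges 667 nm emission and signal to noise over triplicate slides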
- reported_conditions: small-molecule microarray binding, higher = more signal
measure: composite z-score
// return just the number, without any unit appended

Before answering, review these 8 worked examples.
| compound | composite z-score |
| --- | --- |
| C=C(C(=O)CC[C@H](OC(=O)c1ccccc1-c1ccccc1C(=O)O)c1ccc(OCCO)cc1)C(C)C | 0.125 |
| O=C1N(Cc2ccccc2)c2ccccc2C[C@@]12N=C(c1ccc(OCCCO)cc1)O[C@H]2c1ccccc1 | 0.0918 |
| COC(=O)C(CC#Cc1ccc2c(c1)[C@]1(C(=O)N2)[C@H](c2ccc(OCCO)cc2)N2[C@H](c3ccccc3)[C@H](c3ccccc3)OC(=O)[C@H]2[C@@H]1C(N)=O)C(=O)OC | 0.13 |
| C=C(COC)C(=O)CC[C@@H](OC(=O)c1ccccc1-c1ccccc1C(=O)O)c1ccccc1OCCO | 0.261 |
| COc1ccc([Si](C)(C)[C@H]2[C@H](CC(=O)N3CCC[C@H]3CO)O[C@@]3(C(=O)N(C)c4ccccc43)[C@@H]2C)cc1 | 0.0473 |
| O=C(O)C1=CC[C@H]2C(=O)N(c3ccccc3)C(=O)[C@@H]12 | 0.997 |
| COC(=O)C(CC#Cc1ccc2c(c1)[C@]1(C(=O)N2)[C@H](C(=O)N2CCCCCCC2)[C@H]2C(=O)O[C@H](c3ccccc3)[C@H](c3ccccc3)N2[C@@H]1c1ccc(OCCO)cc1)C(=O)OC | 2.59 |
| Cc1ccc(S[C@]2(C(=O)NCc3ccccc3)CC(=O)N(Cc3ccccc3C(F)(F)F)[C@@H]2c2ccc(CO)cc2I)cc1 | -0.135 |

[ask] State the recorded composite z-score for this entry: COC(=O)[C@]1(Cc2ccccc2N=[N+]=[N-])N=C(c2ccc(OCCCO)cc2)O[C@@H]1c1ccccc1CN=[N+]=[N-]
[reply] -0.0277

[ask] State the recorded composite z-score for this entry: Cc1ccc(S(=O)(=O)N2[C@@H](c3ccccc3)C(C(=O)O)=C[C@H]2C(C)(C)C)cc1
[reply] -0.18

[ask] State the recorded composite z-score for this entry: C=C(CCCC)/C(=C/C[C@@H](OC(C)=O)c1ccc(OCCO)cc1)c1cc(C(=O)OC)ccc1OC
[reply] -0.0274

[ask] State the recorded composite z-score for this entry: COc1cccc(C)c1NC(=O)O[C@H]1[C@H](OC(=O)Nc2ccccc2-c2ccccc2)[C@@H](OC(=O)Nc2ccccc2-c2ccccc2)[C@@H](OC)O[C@@H]1CO
[reply] 0.268

[ask] State the recorded composite z-score for this entry: CC(C)C[C@H]1NC(=O)CNC(=O)[C@@]23C(=O)N[C@@H](Cc4ccccc4)C2[C@H](C)[C@@]2(C)O[C@H]2C3/C=C/C/C=C\CNC1=O (stereo partly specified)
[reply] -0.122

[ask] State the recorded composite z-score for this entry: O=C1O[C@H](c2ccccc2)[C@H](c2ccccc2)N2[C@H]1[C@@H](C(=O)N1CCCCCCC1)[C@]1(C(=O)Nc3ccc(C#CCCO)cc31)[C@H]2c1ccc(O)cc1
[reply] 2.21

[ask] State the recorded composite z-score for this entry: C=CCNC(=O)[C@@H]1[C@H]2C(=O)O[C@H](c3ccccc3)[C@H](c3ccccc3)N2[C@H](c2ccc(O)cc2)[C@@]12C(=O)Nc1ccc(C#CC3=CCCCC3)cc12
[reply] 0.28

[ask] State the recorded composite z-score for this entry: COCCOC(=O)N1C(=O)[C@@]2(c3cc(C#CCC(C(=O)OC)C(=O)OC)ccc31)[C@H](c1ccc(O)cc1)N1[C@H](c3ccccc3)[C@H](c3ccccc3)OC(=O)[C@H]1[C@@H]2C(=O)N1CCc2cc(OC)c(OC)cc2C1
[reply] -0.0233

[ask] State the recorded composite z-score for this entry: CN1C2C=C(c3ccc(CO)cc3)C(C3C(=O)N(C(N)=O)C(=O)C32)C1C1CC1 (stereo unspecified)
[reply] -0.0745

[ask] State the recorded composite z-score for this entry: COc1ccc([Si](C)(C)[C@H]2[C@H](CC(=O)N(CCO)Cc3ccccc3)O[C@@]3(C(=O)N(Cc4ccc(N5C(=O)c6cccc7cccc5c67)cc4)c4ccccc43)[C@@H]2C)cc1
[reply] 0.177

[ask] State the recorded composite z-score for this entry: CO[C@H]1O[C@H](CO)[C@@H](OC(=O)CCc2ccccc2)[C@@H]2OC(=O)[C@@H](Cc3ccc4ccccc4c3)C/C=C/C[C@H](Cc3ccc4ccccc4c3)C(=O)O[C@@H]12
[reply] 0.0302

[ask] State the recorded composite z-score for this entry: COC(=O)[C@@]1(Cc2ccccc2)[C@H]2c3cc(C(=O)N(C)C)n(CCF)c3C[C@H]2CN1C(=O)c1ccccc1
[reply] 0.0635

[ask] State the recorded composite z-score for this entry: Cc1cccc([C@H]2C[C@H]3C(Br)=C[C@@]2(CO)C(=O)[C@]32CO2)c1
[reply] 0.273
